biological target: Squalene monooxygenase (Sus scrofa); assay: In vitro inhibitory activity against pig liver microsomal squalene epoxidase
Entries whose IC50 is below 5000 nM take t; entries at or above 5000 nM take f.

>>> category_label("CCN(CC#CC#CC(C)(C)OC)Cc1cccc(OC[Si](C)(C)c2ccccc2C)c1")
"t"
>>> category_label("CCN(C/C=C/C#CC(C)(C)C)Cc1cccc(OC[Si](C)(C)c2ccc(OC)cc2)c1")
"t"
>>> category_label("CCN(C/C=C/C#CC(C)(C)C)Cc1cccc(OC[Si](C)(C)c2ccc(Cl)cc2)c1")
"t"
>>> category_label("CCN(C/C=C/C#CC(C)(C)C)Cc1cccc(OC[Si](C)(C)CCc2ccccc2)c1")
"f"
>>> category_label("CCN(C/C=C/C#CC(C)(C)C)Cc1cccc(OC[Si](C)(C)c2ccc(O)cc2)c1")
"f"
>>> category_label("CCN(C/C=C/C#CC(C)(C)C)Cc1cccc(OC[Si](C)(C)Cc2ccccc2)c1")
"t"
>>> category_label("CCN(C/C=C/C#CC(C)(C)C)Cc1cccc(OC[Si](C)(C)c2ccc(F)cc2)c1")
"t"
>>> category_label("CCN(C/C=C/C#CC(C)(C)C)Cc1cccc(OC[Si](C)(C)c2ccc(C=O)cc2)c1")
"t"
>>> category_label("CCN(C/C=C/C#CC(C)(C)C)Cc1cccc(OC[Si](C)(C)c2ccc(C)cc2)c1")
"t"
>>> category_label("CCN(C/C=C/C#CC(C)(C)C)Cc1cccc(OC[Si](C)(C)c2cccc(C)c2)c1")
"t"
>>> category_label("CCN(C/C=C/C#CC(C)(C)C)Cc1cccc(OC[Si](C)(C)c2ccc(S)cc2)c1")
"f"
>>> category_label("CCN(C/C=C/C#CC(C)(C)C)Cc1cccc(OC[Si](C)(C)c2ccc(Br)cc2)c1")
"t"
>>> category_label("C=Cc1ccc([Si](C)(C)COc2cccc(CN(CC)C/C=C/C#CC(C)(C)C)c2)cc1")
"t"
>>> category_label("CCN(C/C=C/C#CC(C)(C)C)Cc1cccc(OC[Si](C)(C)c2ccccc2C(F)(F)F)c1")
"t"
>>> category_label("CCN(C/C=C/C#CC(C)(C)C)Cc1cccc(OC[Si](C)(C)c2ccccc2-c2ccsc2)c1")
"f"
>>> category_label("CCN(C/C=C/C#CC(C)(C)C)Cc1cccc(OC[Si](C)(C)C2CCCCC2)c1")
"f"
